All figures here come from the supplement of paper PMC10266784.

B1: library; numbered along this chain (parent)
chain: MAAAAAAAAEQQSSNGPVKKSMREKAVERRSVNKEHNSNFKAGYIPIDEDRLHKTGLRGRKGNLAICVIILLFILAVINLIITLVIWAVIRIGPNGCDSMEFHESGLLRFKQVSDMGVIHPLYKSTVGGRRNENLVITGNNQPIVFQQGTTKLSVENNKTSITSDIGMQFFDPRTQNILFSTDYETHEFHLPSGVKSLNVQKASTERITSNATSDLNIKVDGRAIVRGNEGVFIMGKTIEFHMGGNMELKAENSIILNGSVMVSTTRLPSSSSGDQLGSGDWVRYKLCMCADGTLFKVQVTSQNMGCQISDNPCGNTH

Variants of: B1
protocol.details: SGCB cell-surface expression functional score (HA stain, bin4 vs bin1, normalised to synonymous) (log10 ratio); higher = more cell-surface SGCB (functional)
Class (by SGCB cell-surface expression functional score (log10)) -- low (below -0.6), intermediate (-0.6 to below -0.1), high (-0.1 or more)

query: Input `I119A` ; output its category
result: intermediate

query: Input `D165T` ; output its category
result: high

query: Input `Q299N` ; output its category
result: high

query: Input `G236E` ; output its category
result: low

query: Input `F170I` ; output its category
result: high

query: Input `Q299P` ; output its category
result: high

query: Input `N157K` ; output its category
result: intermediate

query: Input `S181H` ; output its category
result: low

query: Input `A212L` ; output its category
result: low

query: Input `M168Q` ; output its category
result: low

query: Input `T163Q` ; output its category
result: high

query: Input `V300M` ; output its category
result: low

query: Input `E156I` ; output its category
result: low

query: Input `F146S` ; output its category
result: low

query: Input `T150Q` ; output its category
result: intermediate

query: Input `N140G` ; output its category
result: high

query: Input `G228Q` ; output its category
result: low

query: Input `L75G` ; output its category
result: intermediate

query: Input `V145E` ; output its category
result: high

query: Input `D98Y` ; output its category
result: low

query: Input `A212H` ; output its category
result: low

query: Input `L75E` ; output its category
result: high

query: Input `G244C` ; output its category
result: high

query: Input `N157T` ; output its category
result: high

query: Input `L80F` ; output its category
result: intermediate

query: Input `C290T` ; output its category
result: intermediate

query: Input `D115I` ; output its category
result: low

query: Input `G56A` ; output its category
result: high

query: Input `L153F` ; output its category
result: intermediate

query: Input `S273C` ; output its category
result: intermediate

query: Input `G306I` ; output its category
result: low

query: Input `N140S` ; output its category
result: intermediate

query: Input `L80H` ; output its category
result: intermediate

query: Input `E101W` ; output its category
result: low

query: Input `L122E` ; output its category
result: high

query: Input `F146R` ; output its category
result: low

query: Input `L249A` ; output its category
result: high

query: Input `T205P` ; output its category
result: intermediate

query: Input `T160F` ; output its category
result: intermediate

query: Input `P313G` ; output its category
result: intermediate

query: Input `G149M` ; output its category
result: intermediate

query: Input `I255W` ; output its category
result: low

query: Input `N140F` ; output its category
result: intermediate

query: Input `L122F` ; output its category
result: intermediate

query: Input `N79I` ; output its category
result: high

query: Input `I309M` ; output its category
result: high
